Recorded PRNT50 (ug/ml) for Ebola Zaire (Kikwit strain) by entry
# TESTED SYSTEM: Ebola Zaire (Kikwit strain) glycoprotein (Ebola Zaire (Kikwit strain)) (UniProt P87666)
# Sequence (P87666 33-676 limits assumed): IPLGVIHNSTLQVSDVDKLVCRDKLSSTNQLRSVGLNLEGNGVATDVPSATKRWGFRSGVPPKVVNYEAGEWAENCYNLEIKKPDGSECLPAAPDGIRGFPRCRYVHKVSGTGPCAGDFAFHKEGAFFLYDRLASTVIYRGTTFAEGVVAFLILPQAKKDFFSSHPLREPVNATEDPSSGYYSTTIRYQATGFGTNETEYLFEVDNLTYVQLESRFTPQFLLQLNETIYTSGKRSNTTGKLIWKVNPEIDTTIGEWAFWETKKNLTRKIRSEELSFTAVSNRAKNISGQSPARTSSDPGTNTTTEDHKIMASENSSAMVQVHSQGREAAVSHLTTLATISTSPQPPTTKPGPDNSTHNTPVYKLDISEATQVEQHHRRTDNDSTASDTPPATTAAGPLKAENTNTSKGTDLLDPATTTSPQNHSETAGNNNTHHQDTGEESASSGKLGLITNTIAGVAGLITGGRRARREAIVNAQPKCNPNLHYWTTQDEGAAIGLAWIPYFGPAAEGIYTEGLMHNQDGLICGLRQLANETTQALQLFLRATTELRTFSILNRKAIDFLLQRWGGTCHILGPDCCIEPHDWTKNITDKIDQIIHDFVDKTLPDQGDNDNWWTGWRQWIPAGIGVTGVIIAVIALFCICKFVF
# MEASUREMENT DESCRIPTION: cell-based or functional assay
PARAMETER MEASURED: PRNT50 (ug/ml) for Ebola Zaire (Kikwit strain) (µg/mL)

>>> quantitative_result("2.10.1E06 (antibody, V domains shown) VH: EVQLVESGGGLIQPGGSLRLSCTASGFTFSKFAMSWVRQAPGRGLEWISYISGGSKTKYYADSVRGRFTISRDNAKGSLFLQMNSLRAEDTAIYFCAKKGWQSTFLGMDYFYGMDVWGKGTTVTVSS VL: EIVLTQSPGTLSLSPGERATLSCRASQSVTSNYLAWYQQKPGQAPRVLIYGASSRATGIPDRFSGSGSGTDFTLTISRLEPEDFAVYYCQQFGASPPYSFGQGTKVEIK")
0.781
>>> quantitative_result("5.1.13G03 (antibody, V domains shown) VH: QVQLQESGPGLVKPSGTLSLTCAVSGGSISSTNWWSWVRQPPGKGLEWIGEIYHSGSTNYNPSLKSRVTISLDKSKDQFSLKLSSVTAADTAVYYCAYSNTWTGGWGQGTLVTVSS VL: DIQMTQSPSSLSASVGDRVTITCRASQSISSYLNWYQQKPGKAPKVLIYSAFSLQNGVPSRFSGSGSGTDFTLTISSLQPEDFATYYCQQSYSTPRTFGQGTKVEIK")
0.0978
